Origin of values: patent US12624034B2

Molecular target: AKT1 E17K (Homo sapiens, UniProt P31749, E17K)
Construct: expressed in transfected cells; host or cells: HEK293
Sequence (P31749 whole entry E17K): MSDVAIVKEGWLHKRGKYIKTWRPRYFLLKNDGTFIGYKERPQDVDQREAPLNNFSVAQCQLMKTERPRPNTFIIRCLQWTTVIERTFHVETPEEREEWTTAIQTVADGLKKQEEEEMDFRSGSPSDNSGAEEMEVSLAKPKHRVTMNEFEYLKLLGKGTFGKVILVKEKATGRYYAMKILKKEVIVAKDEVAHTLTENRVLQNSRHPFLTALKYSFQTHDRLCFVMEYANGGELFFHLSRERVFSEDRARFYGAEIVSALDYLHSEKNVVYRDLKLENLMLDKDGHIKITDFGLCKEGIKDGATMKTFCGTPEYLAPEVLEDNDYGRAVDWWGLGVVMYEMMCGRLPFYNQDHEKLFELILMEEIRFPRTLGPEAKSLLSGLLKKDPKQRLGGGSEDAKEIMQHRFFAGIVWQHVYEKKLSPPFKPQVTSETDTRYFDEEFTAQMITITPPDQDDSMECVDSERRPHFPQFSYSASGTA
Assay: Live cell AKT1 E17K target engagement by NanoBRET competitive probe displacement in HEK293 cells
Format: binding
Settings: NanoBRET live cell target engagement, HEK293 cells, 2 h at 37° C.
Method: Determining live cell AKT1 E17K, AKT1 WT, and AKT2 target engagement by NanoBRET competitive probe displacement. Live cell target engagement assays were performed as described (Vasta, J. D. et al. Cell Chem Biol 2018, 25(11), 206-214). […] After incubation for 2 h at 37° C., luciferase substrate and extracellular luciferase inhibitor were added to all wells, and luminescent intensity at 460 nm and 600 nm were measured on a multimode plate-reader. […]
pIC50: −log10 of the molar value.
Record true (1) whenever pIC50 is at 7 or higher; record false (0) when lower.

Nc1ncccc1-c1nc2ccc(-n3cccn3)nc2n1-c1ccc2c(c1)CC[C@@H]2NC1CCN(C(=O)c2ccncc2)CC1    false (0)
Nc1ncccc1-c1nc2ccc(-n3cccn3)nc2n1-c1ccc2c(c1)CC[C@@H]2NC(=O)c1ccc(Cl)nc1    false (0)
Nc1ncccc1-c1nc2ccc(-n3cccn3)nc2n1-c1ccc2c(c1)CC[C@@H]2NC(=O)c1ccn(C(F)F)n1    true (1)
Nc1ncccc1-c1nc2ccc(-n3cccn3)nc2n1-c1ccc2c(c1)CC[C@@H]2NC(=O)c1ccnnc1    false (0)
Nc1ncccc1-c1nc2ccc(-n3cccn3)nc2n1-c1ccc2c(c1)CC[C@@H]2NC(=O)c1ccc(C(F)F)nc1    true (1)

Let us examine a further case.
Can Cc1ccc(C(=O)N[C@H]2CCc3cc(-n4c(-c5cccnc5N)nc5ccc(-n6ccc(F)n6)nc54)ccc32)cn1 be said to have pIC50 at or above 7? false (0)

###

Listing: IC50 of selected compounds
Target: AKT1 E17K (Homo sapiens, UniProt P31749, E17K)
Construct: expressed in transfected cells; host or cells: HEK293
Experiment: Live cell AKT1 E17K target engagement by NanoBRET competitive probe displacement in HEK293 cells
Assay type: binding
Conditions: NanoBRET live cell target engagement, HEK293 cells, 2 h at 37° C.
Record the value in µM, omitting the unit from your answer.

These solved cases illustrate the format of a correct answer.
Nc1ncccc1-c1nc2ccc(-n3cccn3)nc2n1-c1ccc2c(c1)CC[C@@H]2NC(=O)c1ccnc2c1CCCO2    0.486
COc1ncc(C(=O)N[C@H]2CCc3cc(-n4c(-c5cccnc5N)nc5ccc(-n6cccn6)nc54)ccc32)cn1    0.39
Nc1ncccc1-c1nc2ccc(-n3nccn3)nc2n1-c1ccc2c(c1)CC[C@@H]2NC1CCN(c2ccccn2)CC1    0.818

Query for AKT1 E17K (Homo sapiens, UniProt P31749, E17K): what IC50 does the record show for COc1cc(C(=O)N[C@H]2CCc3cc(-n4c(-c5cccnc5N)nc5ccc(-n6cccn6)nc54)ccc32)cc(OC)n1 ? 0.0106

###

Molecular target: AKT2 (Homo sapiens, UniProt P31751)
Construct: expressed in transfected cells; host or cells: HEK293
Sequence (P31751 whole entry): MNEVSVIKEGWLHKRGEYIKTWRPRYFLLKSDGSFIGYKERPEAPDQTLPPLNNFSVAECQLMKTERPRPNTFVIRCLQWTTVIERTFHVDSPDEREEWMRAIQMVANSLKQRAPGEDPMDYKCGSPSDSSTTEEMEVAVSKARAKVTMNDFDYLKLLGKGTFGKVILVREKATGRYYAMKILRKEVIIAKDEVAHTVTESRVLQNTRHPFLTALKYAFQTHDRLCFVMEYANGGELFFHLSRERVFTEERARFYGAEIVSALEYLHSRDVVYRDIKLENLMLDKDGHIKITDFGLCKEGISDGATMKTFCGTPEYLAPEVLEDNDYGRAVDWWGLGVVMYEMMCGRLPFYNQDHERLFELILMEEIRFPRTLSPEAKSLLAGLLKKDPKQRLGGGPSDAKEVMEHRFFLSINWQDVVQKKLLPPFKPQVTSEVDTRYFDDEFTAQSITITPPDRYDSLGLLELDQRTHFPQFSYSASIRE
Assay: Live cell AKT2 target engagement by NanoBRET competitive probe displacement in HEK293 cells
Type: binding
Details: NanoBRET live cell target engagement, HEK293 cells, 2 h at 37° C.; read-out: AKT2 IC50
IC50: recorded values
Provide the reading as a plain figure in nM.

Use these answered entries as a reference point.
Nc1ncccc1-c1nc2ccc(-n3cccn3)nc2n1-c1ccc2c(c1)CC[C@@H]2NC(=O)C1CC1    7720
Nc1ncccc1-c1nc2ccc(-n3cccn3)nc2n1-c1ccc2c(c1)CC[C@@H]2NC(=O)c1cnc2cccn2c1    56.5
Cc1ccc(C(C)N[C@H]2CCc3cc(-n4c(-c5cccnc5N)nc5ccc(-n6cccn6)nc54)ccc32)cn1 (stereo partly shown) [Compound 154]    3180
Nc1ncccc1-c1nc2ccc(-n3cccn3)nc2n1-c1ccc2c(c1)CC[C@@H]2NC(=O)c1ccc(O)c(F)c1    66.5
Cc1csc(-c2ccc3nc(-c4cccnc4N)n(-c4ccc5c(c4)CC[C@@H]5NC(=O)c4nccnc4C)c3n2)n1    456

Which IC50 value belongs to CC(=O)Nc1ccc(C(=O)N[C@H]2CCc3cc(-n4c(-c5cccnc5N)nc5ccc(-n6cccn6)nc54)ccc32)cn1 ? 46.6

// next record Nc1ncccc1-c1nc2ccc(-n3cccn3)nc2n1-c1ccc2c(c1)CC[C@@H]2NC(=O)c1cc(O)c(O)cc1F 497

###

Target: AKT2 (Homo sapiens)
Construct: expressed in transfected cells; host or cells: HEK293
Experiment: Live cell AKT2 target engagement by NanoBRET competitive probe displacement in HEK293 cells
Format: binding
Details: NanoBRET live cell target engagement, HEK293 cells, 2 h at 37° C.; read-out: AKT2 IC50
Description: Determining live cell AKT1 E17K, AKT1 WT, and AKT2 target engagement by NanoBRET competitive probe displacement. […] Briefly, HEK293 cells were transfected with plasmids encoding kinase-NanoLuciferase fusion proteins overnight. […] After incubation for 2 h at 37° C., luciferase substrate and extracellular luciferase inhibitor were added to all wells, and luminescent intensity at 460 nm and 600 nm were measured on a multimode plate-reader. […]
Measured Parameter: pIC50
// field semantics: pIC50 = negative decimal log of concentration (mol/L)

COc1ccc(C(=O)N[C@H]2CCc3cc(-n4c(-c5cccnc5N)nc5ccc(-n6cccn6)nc54)ccc32)cn1    7.72
Nc1ncccc1-c1nc2ccc(-n3cccn3)nc2n1-c1ccc2c(c1)CC[C@@H]2NC(=O)c1cncnc1    6.75
Cc1cc2ncn([C@H]3CCc4cc(-n5c(-c6cccnc6N)nc6ccc(-n7cccn7)nc65)ccc43)c(=O)c2cn1    6.12
Cc1cc(C(=O)N[C@H]2CCc3cc(-n4c(-c5cccnc5N)nc5ccc(-n6cccn6)nc54)ccc32)cnc1C    7.50
Nc1ncccc1-c1nc2ccc(-n3cccn3)nc2n1-c1ccc2c(c1)CC[C@@H]2NC(=O)c1ccnc2c1CCCO2    6.39

Field: next compound
# returns recorded pIC50 (system: AKT2 (Homo sapiens)) for COc1cc(C(=O)N[C@H]2CCc3cc(-n4c(-c5cccnc5N)nc5ccc(-n6cccn6)nc54)ccc32)cc(C)n1 8.15

###

Target: AKT2 (Homo sapiens, UniProt P31751)
Construct: expressed in transfected cells; host or cells: HEK293
Assay: Live cell AKT2 target engagement by NanoBRET competitive probe displacement in HEK293 cells
Format: binding
Conditions: NanoBRET live cell target engagement, HEK293 cells, 2 h at 37° C.; read-out: AKT2 IC50
Measured Parameter: IC50

Sample answers from the record:
COC1(C(F)F)CC(C(=O)N[C@H]2CCc3cc(-n4c(-c5cccnc5N)nc5ccc(-n6cccn6)nc54)ccc32)C1 (single isomer, unassigned)    > 10000 nM
Cc1ccc(C(=O)N[C@H]2CCc3cc(-n4c(-c5cccnc5N)nc5ccc(-n6cccn6)nc54)ccc32)c(C)n1    71.6 nM

Then this molecule:
What value of IC50 has been recorded for this entry: Nc1ncccc1-c1nc2ccc(-n3cccn3)nc2n1-c1ccc2c(c1)CC[C@@H]2NC1CCN(c2ccccn2)CC1 486 nM

###

Below, each entry is listed with its recorded IC50.
Target: AKT1 WT (Homo sapiens, UniProt P31749)
Construct: expressed in transfected cells; host or cells: HEK293
Sequence (P31749 whole entry): as the sequence (P31749 whole entry E17K) above, with K17E counted along it
Assay: Live cell AKT1 WT target engagement by NanoBRET competitive probe displacement in HEK293 cells
Assay type: binding
Conditions: NanoBRET live cell target engagement, HEK293 cells, 2 h at 37° C.; read-out: AKT1 WT IC50
Lab book: enter the figure in nM, no units written.

Recorded results for 5 compounds are shown here.
Cc1cncc(C(=O)N[C@H]2CCc3cc(-n4c(-c5cccnc5N)nc5ccc(-n6cccn6)nc54)ccc32)c1 [Compound 30]    10.6
Nc1ncccc1-c1nc2ccc(-n3cccn3)nc2n1-c1ccc2c(c1)CC[C@@H]2NC(=O)c1cc2n(n1)CCC2 [Compound 173]    30.2
Nc1ncccc1-c1nc2ccc(-n3cccn3)nc2n1-c1ccc2c(c1)CC[C@@H]2NC(=O)c1ccc2[nH]ncc2c1 [Compound 193]    6.71
Nc1ncccc1-c1nc2ccc(-n3nccn3)nc2n1-c1ccc2c(c1)CC[C@@H]2NC1CCN(c2ccccn2)CC1 [Compound 366]    70.9
COc1cc(C(=O)N[C@H]2CCc3cc(-n4c(-c5cccnc5N)nc5ccc(-n6cccn6)nc54)ccc32)nn1C [Compound 216]    58.4

We next turn to a different compound, shown below.
For the compound Cc1ccc(C(=O)N[C@H]2CCc3cc(-n4c(-c5cccnc5N)nc5ccc(-c6nc(C)cs6)nc54)ccc32)cn1 [Compound 300] , what IC50 is on record? 3.32

###

Biological target: AKT2 (Homo sapiens)
Construct: expressed in transfected cells; host or cells: HEK293
Test: Live cell AKT2 target engagement by NanoBRET competitive probe displacement in HEK293 cells
Assay type: binding
Details: NanoBRET competitive probe displacement, live HEK293 cells, 2 h at 37° C.; read-out: AKT2 IC50
Measured Parameter: pIC50
Please express pIC50 as -log10 of the molar concentration.

In the examples that follow, each entry is paired with its recorded pIC50.
Nc1ncccc1-c1nc2ccc(-n3ccc(N4CCOCC4)n3)nc2n1-c1ccc2c(c1)CC(F)[C@@H]2NC1CCN(C(=O)C2CC2)CC1 (stereo partly drawn) [Compound 544]    6.89
N#Cc1nc2c(c(N3CCC(N[C@H]4CCc5cc(-n6c(-c7cccnc7N)nc7ccc(-n8cccn8)nc76)ccc54)CC3)n1)CCC2 [Compound 603]    7.11
Nc1ncccc1-c1nc2ccc(-n3cccn3)nc2n1-c1ccc2c(c1)CC[C@@H]2NC1CCN(C(=O)C2CC2)CC1F (stereo partly drawn) [Compound 445]    6.01

// returns reported pIC50 for input Nc1ncccc1-c1nc2ccc(-n3cccn3)nc2n1-c1ccc2c(c1)CC[C@@H]2NC1CC2(CCCN(c3ccccn3)C2)C1 (stereo partly drawn) [Compound 468] 5.71

Quick one: Nc1ncccc1-c1nc2ccc(-n3cccn3)nc2n1-c1ccc2c(c1)CC[C@@H]2NC1CCc2cnccc21 (stereo partly drawn) [Compound 473] 7.55

Further, for Nc1ncccc1-c1nc2ccc(-n3cccn3)nc2n1-c1ccc2c(c1)CC[C@@H]2NC1CCN(C(=O)[C@H]2C[C@H]2F)CC1 [Compound 478] ? 5.50
